Each item that follows carries a reported EC50.
Molecular target: soluble histidine-tagged form of human TLR4/MD2 complex (human, UniProt Q9Y6Y9 19-160)
Sequence (Q9Y6Y9 19-160, one chain of several): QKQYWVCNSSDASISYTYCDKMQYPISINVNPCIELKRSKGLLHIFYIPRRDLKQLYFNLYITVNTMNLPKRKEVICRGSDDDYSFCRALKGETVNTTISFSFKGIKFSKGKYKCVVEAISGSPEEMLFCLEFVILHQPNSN
Assay: competitive ELISA; coated 15C1 as competitor, soluble His-tagged human TLR4/MD2, Penta-His-HRP
Protocol: The VH and VL cDNA sequences in their appropriate expression vectors were transfected into mammalian cells using the Fugene 6 Transfection Reagent (Roche, Basel, Switzerland). […] The eluted IgG fraction was then dialyzed against PBS and the IgG content quantified by absorption at 280 nm. […] Relative binding potency of 1E11 variants was assessed by competitive ELISA. […] The results were determined according to the absorbance at 450 nm. […]
Return type: number; implicit unit µg/mL.

1E11.C1 antibody (IgG1 reformatted) (antibody, V domains shown, VH 67 / VL 4 are the variable domains) VH: QVQLQESGPGLVKPSDTLSLTCAVSGFPIRYGYSWHWIRQPPGKGLEWMGYIHYSGYTDFNPSLKTRITISRDTSKNQFSLKLSSVTAVDTAVYYCARKDSGNYFPYWGQGTLVTVSS VL: EIVLTQSPDFQSVTPKEKVTITCRASQSISDHLHWYQQKPDQSPKLLIKYASHAISGVPSRFSGSGSGTDFTLTINSLEAEDAATYYCQQGHSFPLTFGGGTKVEIKR :: 0.052

Now examine the next entry.
Exercise: Requested read-out: EC50. Entry: 1E11.C5 antibody (IgG1) (antibody, V domains shown) VH: QVQLQESGPGLVKPSDTLSLTCAVSGYPIWGGYSWHWIRQPPGKGLEWMGYIHYSGYTDFNPSLKTRITISRDTSKNQFSLKLSSVTAVDTAVYYCARKDSGNYFPYWGQGTLVTVSS VL: EIVLTQSPDFQSVTPKEKVTITCRASQSISDHLHWYQQKPDQSPKLLIKYASHAISGVPSRFSGSGSGTDFTLTINSLEAEDAATYYCQQGHSFPLTFGGGTKVEIK
Solution: 0.087
